Test system: Trypanosoma brucei rhodesiense
Test: Antiparasitic activity against Trypanosoma brucei rhodesiense STIB 900 trypomastigote bloodstream form assessed as growth inhibition at 4.8 ug/ml after 72 hrs by resazurin dye-based fluorometric analysis relative to control
Format: functional
Conditions: STIB 900, 72 h, read-out: GI
In this section, each of the compounds is paired with its reported inhibition of growth at 4.8 µg/mL.
Just the number please, in %, no unit attached.

Solved cases (5 shown):
COMPOUND | inhibition of growth at 4.8 µg/mL, %
CC1Cc2ccccc2N1S(=O)(=O)c1ccc(C(F)(F)F)cc1 (centres undefined) | 1.2
CC(C)(C)c1ccc(S(=O)(=O)N2CCCc3ccccc32)cc1 | 5.5
O=S(=O)(c1ccc(C(F)(F)F)cc1)N1CCCc2ccccc21 | 18.1
Cc1ccc(S(=O)(=O)N2CCc3ccccc32)cc1 | 0
O=S(=O)(c1cccc(C(F)(F)F)c1)N1CCCc2ccccc21 | 2.5

`O=S(=O)(c1cccc(C(F)(F)F)c1)n1ccc2ccccc21` has a reported inhibition of growth at 4.8 µg/mL of 0

Data point: Cc1ccc(S(=O)(=O)N2c3ccccc3CC2C)cc1 (centres undefined) ; inhibition of growth at 4.8 µg/mL = 0

// inhibition of growth at 4.8 µg/mL value for `O=[N+]([O-])c1ccccc1S(=O)(=O)N1CCCc2ccccc21` : 17.1

The reported inhibition of growth at 4.8 µg/mL of the compound CC1CCc2ccccc2N1S(=O)(=O)c1ccc(C(C)(C)C)cc1 (centres undefined) was 0

Measured inhibition of growth at 4.8 µg/mL, `O=S(=O)(c1ccccc1)N1CCc2ccccc21` : 0

Entry CC1Cc2ccccc2N1S(=O)(=O)c1cccc([N+](=O)[O-])c1 (centres undefined) , inhibition of growth at 4.8 µg/mL reported as 12.6

// inhibition of growth at 4.8 µg/mL lookup, compound = `CC(=O)c1ccc(S(=O)(=O)n2nnc3ccccc32)cc1` , result: 4.9

Recorded inhibition of growth at 4.8 µg/mL (compound CC1CCc2ccccc2N1S(=O)(=O)c1ccc(C(F)(F)F)cc1 (centres undefined) ): 8.1

For this compound ( `CC(C)(C)c1ccc(S(=O)(=O)N2CCc3ccccc3C2)cc1` ), measured inhibition of growth at 4.8 µg/mL is 8.7

Given item `O=[N+]([O-])c1cccc(S(=O)(=O)N2CCc3ccccc32)c1` , the value recorded as its inhibition of growth at 4.8 µg/mL is 4.3

Measured inhibition of growth at 4.8 µg/mL, `O=[N+]([O-])c1ccc(S(=O)(=O)N2CCc3ccccc32)cc1` : 98
